# Tested on: MS2 coat protein
# test-summary: apparent KD of MS2 coat protein; higher = weaker reporter binding
# measurement-parameters: Eterna round: R107; input ligand: theophylline 2 mM
experimental-endpoint: apparent KD of MS2 coat protein (nM)
Answer with a number only, understood to be in nM.

Here's what some known entries look like.
query-sequence	unit-of-measurement	apparent KD of MS2 coat protein
AACAUGAGGAUCACCCAUGUAUGUUCCGAAGGAGCGCCACAUGAGGCAGGUAGGUCGCGGGUACAUGAGGAUCACCCAUGUGUCA [Exclusion Arginine A 3]	nM	128
UAUCGUCAGACGGCCGCCACUAGAACAUGAGGAUCACCCAUGUAGGUCCUAGAUUCCUCAAUAACUAGGACCGGGUCUGACGAAU [(Trp1)-(Ms2)-(T)'-(M)'-(Trp2)_Design14]	nM	224
UGACAUUGCUCAGAUACCAGACAUGAGCAUCAGCCAUGUACCAAGAGUACAUAUUAAAAUGUCCCUUGGCAGCUGAGCAAUGUCU [Mod of Eli's TheoBX5 #AlternateMS2 v1]	nM	166
GGAUAGGACACGGCCGCCACUAGCUAGGAUACUAGCAACAUUUCCUCAUCUGAGGAUCACCCAGGUAGGACCGGGUGUCCUAUCG	nM	1070

// sample GACAUUAACUGAAGGAGCGAGGUAGAACGGGAUGAGCAUACAUGAGGAUCACCCAUGUGGCCUCAGGUAGGUCGCAGAUGAGAUU [Exclusion Arginine B GF25] , its apparent KD of MS2 coat protein was 203

// sample GGUACAUGAGGAUCACCCAUGUAUUGGUACCGAGGACCGGUACGGCCGCCACUCGCAUGACAUGAGGAUCACCCAUGUGAAACCU [SSTA DOUBLE!!! :-D #12] , its apparent KD of MS2 coat protein was 59.9

// sample GUUGGUUUGGGAAGGAGCGGGUAUGUUGUCUACUUGAUCCUAACAUGAGGAUCACCCAUGUCCCAGGUAGGUCGCCCAGGCUUUG [12.aD] , its apparent KD of MS2 coat protein was 103

// sample GUCCUAAGGUCGGCCGCCACUGUAGAGUGUGAGCCAUCACAUGAGGAUCACCCAUGUUGUUGCUAUAGGACCGGGAUUGUAGGAC [#22 Exclusion Tryptophan B] , its apparent KD of MS2 coat protein was 12.6

// sample UGUAUGGACUGAAGGAGCGGAUGAUAAUCUGAGGAUCACCCAGGUAAUAAGGCGAAAGCCAUCCAGGUAGGUCGCAGUCCAUACU , its apparent KD of MS2 coat protein was 111

// sample ACACAAUACAUGAGGAUCACCCAUGUAAAACGAGGACCGGUACGGCCGCCACUCGAAUACUGUAAUCCUCGGAAUAUUAAGUGAA [JR_ExcTryptA_Sub002] , its apparent KD of MS2 coat protein was 61.6

// sample UCAGGAAGAGCGGCCGCCACUGUUUGGCAUGCGGAUGAAGGAACAUGAGGAUCACCCAUGUAGAUUAGGACCGGGCUUGCGGAGA [szeemullin] , its apparent KD of MS2 coat protein was 19.4

// sample AUGUAGAACCGAAGGAGCGCGAUGACAUGAGGAUCACCCAUGUAUUUGUGGUGGCUUCGAUCGCAGGUAGGUCGCGGAAGUAGUA [#04 Exclusion - Arginine B] , its apparent KD of MS2 coat protein was 346
